Where these numbers come from: paper PMC9321647

# reported logK11 apparent formation constant (Ga^3+, M:L 1:1); entries follow
Assay: Spectrophotometric pH-metric titrations of Ga^3+:ligand systems (stability constants, pGa, speciation)
Format: physicochemical
Details: 298 K, estimated from logβMLH
measurement_name: logK11 apparent formation constant (Ga^3+, M:L 1:1)

molecule | test_value
COc1cc(/C=C/C(=O)C(CCC(=O)O)C(=O)/C=C/c2ccc(O)c(OC)c2)ccc1O [Compound 7] | 6.68
COc1cc(/C=C/C(=O)C(CCCN2C(=O)c3ccccc3C2=O)C(=O)/C=C/c2ccc(O)c(OC)c2)ccc1O [Compound 4] | 8.04
O=C(/C=C/c1ccc(O)cc1)C(CCCN1C(=O)c2ccccc2C1=O)C(=O)/C=C/c1ccc(O)cc1 [Compound 3] | 7.99
O=C(O)CCC(C(=O)/C=C/c1ccc(O)cc1)C(=O)/C=C/c1ccc(O)cc1 [Compound 6] | 6.67
